Cited source for all entries: paper PMC8343220

# Target: human α1B‐adrenoceptor (Homo sapiens, UniProt P35368)
# Construct: expressed in transfected cells; host or cells: CHO-K1
# Sequence (P35368 whole entry): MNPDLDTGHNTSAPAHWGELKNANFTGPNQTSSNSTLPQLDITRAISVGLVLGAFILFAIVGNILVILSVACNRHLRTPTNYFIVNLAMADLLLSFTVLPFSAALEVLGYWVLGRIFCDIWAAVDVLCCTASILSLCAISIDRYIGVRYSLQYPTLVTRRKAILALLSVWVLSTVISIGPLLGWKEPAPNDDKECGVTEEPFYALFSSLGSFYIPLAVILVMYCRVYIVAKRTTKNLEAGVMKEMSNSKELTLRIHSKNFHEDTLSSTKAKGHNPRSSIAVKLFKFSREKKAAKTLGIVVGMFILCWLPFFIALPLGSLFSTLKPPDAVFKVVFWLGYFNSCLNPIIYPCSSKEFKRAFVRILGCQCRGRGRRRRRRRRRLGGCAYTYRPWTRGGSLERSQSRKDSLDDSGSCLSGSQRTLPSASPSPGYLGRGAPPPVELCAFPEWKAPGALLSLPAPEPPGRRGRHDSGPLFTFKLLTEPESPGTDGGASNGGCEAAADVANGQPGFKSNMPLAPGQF
# Measurement notes: Intracellular free calcium mobilization, CHO‐α1B cells
# Format: cell-based
# Condition label: CHO‐α1B cells; maximal response as % of 10 µM ionomycin response
Property label: Intracellular calcium release % ionomycin

>>> df
                                   molecule  result_value
0  CC(C)(C)NCC(O)COc1cccc2[nH]c(=O)[nH]c12 (stereo not drawn) [CGP 12177]   No response
1  O=C1Nc2ccccc2C2=NC(CN3CCN(c4ccccc4)CC3)CN12 (stereo not drawn) [2‐PMDQ]   No response
2  C[C@](N)(Cc1ccc(O)c(O)c1)C(=O)O [Methyldopa]   No response
